target-entity: Mu-type opioid receptor (Homo sapiens, UniProt P35372)
Sequence (P35372 whole entry): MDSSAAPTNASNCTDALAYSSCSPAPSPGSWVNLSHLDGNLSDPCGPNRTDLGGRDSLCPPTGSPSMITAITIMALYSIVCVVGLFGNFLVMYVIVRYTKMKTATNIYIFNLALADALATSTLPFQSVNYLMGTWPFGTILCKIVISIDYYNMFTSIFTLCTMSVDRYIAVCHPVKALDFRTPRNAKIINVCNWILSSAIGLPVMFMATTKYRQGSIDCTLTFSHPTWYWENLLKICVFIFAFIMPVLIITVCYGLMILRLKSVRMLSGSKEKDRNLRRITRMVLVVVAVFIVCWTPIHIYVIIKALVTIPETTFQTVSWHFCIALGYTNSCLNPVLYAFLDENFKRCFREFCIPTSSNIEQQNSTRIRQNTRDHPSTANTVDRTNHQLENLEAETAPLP
protocol-description: Binding affinity to mu opioid receptor (unknown origin)
The entries below come with measured pKi values attached.
pKi field: float, defined as -log10 of concentration (mol/L).

- compound-structure-string: "CC[C@@]12CCN(CCc3ccccc3)C[C@@H]1Oc1ccc(O)cc12"
  endpoint-name: "pKi"
  reported: 9.05

API: the following record is the query input.
(Q) Which value of pKi has been reported for `CC[C@@]12CCN(CC3CC3)C[C@@H]1Oc1ccc(O)cc12` in the records?
(A) 8.40

---

target-entity: UniProt:P41145
protocol-description: Binding affinity to kappa opioid receptor (unknown origin)
endpoint-name: pKi
pKi field: float, defined as -log10 of concentration (mol/L).

(Q) Request - read-out pKi | tested on UniProt:P41145 | compound `CC[C@@]12CCN(CC3CC3)C[C@@H]1Oc1ccc(O)cc12`
(A) 7.47

---

target-entity: Delta-type opioid receptor (Homo sapiens, UniProt P41143)
Sequence (P41143 whole entry): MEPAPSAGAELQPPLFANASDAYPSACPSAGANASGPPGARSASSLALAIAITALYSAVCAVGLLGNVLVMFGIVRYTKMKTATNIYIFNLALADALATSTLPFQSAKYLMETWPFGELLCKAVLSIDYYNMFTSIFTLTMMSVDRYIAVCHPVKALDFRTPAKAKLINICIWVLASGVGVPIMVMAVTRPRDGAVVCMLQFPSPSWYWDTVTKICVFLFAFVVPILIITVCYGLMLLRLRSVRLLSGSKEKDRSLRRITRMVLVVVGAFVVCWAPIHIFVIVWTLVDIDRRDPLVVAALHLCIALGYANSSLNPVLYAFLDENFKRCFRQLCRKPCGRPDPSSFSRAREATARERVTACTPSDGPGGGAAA
protocol-description: Antagonist activity at human recombinant delta opioid receptor expressed in mouse/rat NG108-15 cell membranes assessed as inhibition of SNC80-induced [35S]GTPgammaS binding by liquid scintillation counting analysis
Assay type: functional
The entries below come with measured Ke values attached.
Give your result in nM as a bare value.

- molecule: "CN1CC[C@@]2(CCc3ccccc3F)c3cc(O)ccc3O[C@H]2C1 (relative stereo)"
  Ke / nM: 29

(Q) Which value of Ke has been reported for Oc1ccc2c(c1)[C@]1(CCc3ccccc3)CCN(CCc3ccc(C(F)(F)F)cc3)C[C@@H]1O2 (relative stereo) in the records?
(A) 827

(Q) Now this one: Oc1ccc2c(c1)[C@]1(CCc3ccccc3)CCN(CCc3ccccc3F)C[C@@H]1O2 (relative stereo)
(A) 37

(Q) Now this one: Oc1ccc2c(c1)[C@]1(CCc3ccccc3)CCN(CCc3ccc(F)cc3)C[C@@H]1O2 (relative stereo)
(A) 213

(Q) Now this one: Oc1ccc2c(c1)[C@]1(CCc3ccccc3)CCN(CCc3ccccc3)C[C@@H]1O2 (relative stereo)
(A) 258

(Q) Now this one: Oc1ccc2c(c1)[C@]1(CCc3ccccc3)CCN(CCc3cccc(C(F)(F)F)c3)C[C@@H]1O2 (relative stereo)
(A) 455

---

target-entity: Kappa-type opioid receptor (Homo sapiens, UniProt P41145)
Sequence (P41145 whole entry): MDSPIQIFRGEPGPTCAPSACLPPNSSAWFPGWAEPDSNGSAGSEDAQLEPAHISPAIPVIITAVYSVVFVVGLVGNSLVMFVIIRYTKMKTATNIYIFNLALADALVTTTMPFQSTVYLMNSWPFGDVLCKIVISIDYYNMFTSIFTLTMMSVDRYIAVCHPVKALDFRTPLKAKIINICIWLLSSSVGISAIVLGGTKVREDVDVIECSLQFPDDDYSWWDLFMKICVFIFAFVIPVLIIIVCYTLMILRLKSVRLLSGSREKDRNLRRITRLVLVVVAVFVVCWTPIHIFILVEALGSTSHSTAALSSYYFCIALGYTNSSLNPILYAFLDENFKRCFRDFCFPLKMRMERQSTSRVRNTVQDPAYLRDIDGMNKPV
protocol-description: Displacement of [3H]U69,593 from human recombinant kappa opioid receptor expressed in CHO cell membranes after 2 hrs by liquid scintillation counting analysis
Type: cell-based
endpoint-name: Ki (µM)
Give your result in µM as a bare value.

- compound: "CN1CC[C@@]2(CCc3ccccc3)c3cc(O)ccc3O[C@H]2C1 (racemic)"
  reported: 3.54

API: the following record is the query input.
(Q) Which value of Ki has been reported for CN1CC[C@@]2(Cc3ccccc3)c3cc(O)ccc3O[C@H]2C1 (racemic) in the records?
(A) 2.88

---

Species on record: Homo sapiens
protocol-description: Selectivity ratio of Ki for human recombinant mu opioid receptor to Ki for human recombinant delta opioid receptor
The entries below come with measured Ratio Ki values attached.
# answer = number (no unit)

The examples below pair each entry with its known result.
- compound: "CCCC[C@@]12CCN(C)C[C@@H]1Oc1ccc(O)cc12 (relative stereo)"
  Ratio Ki: 0.5
- compound: "CN1CC[C@@]2(CCc3ccc(F)cc3)c3cc(O)ccc3O[C@H]2C1 (relative stereo)"
  Ratio Ki: 1.3
- compound: "CN1CC[C@@]2(C)c3cc(O)ccc3O[C@H]2C1 (relative stereo)"
  Ratio Ki: 0.04

(Q) Which value of Ratio Ki has been reported for CN1CC[C@@]2(CCCCCc3ccccc3)c3cc(O)ccc3O[C@H]2C1 (relative stereo) in the records?
(A) 0.4

(Q) Now this one: CC[C@@]12CCN(C)C[C@@H]1Oc1ccc(O)cc12 (racemic)
(A) 0.09

(Q) Now this one: Oc1ccc2c(c1)[C@]1(CCc3ccccc3)CCN(CCc3ccccc3C(F)(F)F)C[C@@H]1O2 (relative stereo)
(A) 1.3
